System: P. falciparum stage V gametocytes
Design: BacTiter-Glo ATP luminescence viability of purified stage V gametocytes in 384-well plates, per cent inhibition versus DMSO
assayContext: 48 h, 5 µM; inhibitor
Hit rate of the full screen: of about 13,000 compounds, about 3,200 (25%) showed an effect of 50% or more. The list shows a part of the results.
// values below are reported % Inhibition
Respond numerically; units are % and should not be typed.

Worked examples follow.
1. CCn1ccc2c(N3CCCC3=O)cc(C(=O)N[C@@H](Cc3ccccc3)[C@H](O)CNC(C)(C)CCCC(C)C)cc21 [TCMDC-135313]	55.34
2. CC(=O)OC[C@H]1O[C@@H](C#Cc2ccccc2)[C@H](OC(C)=O)[C@@H](OC(C)=O)[C@@H]1OC(C)=O [TCMDC-131801]	35.52
3. CCn1ccc2c(N3CCCC3=O)cc(C(=O)N[C@@H](Cc3ccccc3)[C@H](O)CNC3CCCCC3)cc21 [TCMDC-135316]	7.868

Using the record for CC(=O)Nc1ccc(C(=O)Nc2cccc(-c3cccc(-c4nc5c(C)cccc5[nH]4)c3)c2)cn1 [TCMDC-136830] , report its % Inhibition.
-4.811

Subsequent entry: COc1ccc(C(=O)NCCCCN2CCC(c3ccc4c(c3OC)CCCC4)CC2)cc1-c1ccc(C(F)(F)F)cc1 [TCMDC-138700]
-81.5

Subsequent entry: COc1ccc2nccc([C@@H](O)CN3CCC(NCc4nc5c(OCc6ccccc6)cccc5[nH]4)CC3)c2c1 [TCMDC-141083]
34.25
